B1: library; a variant is named by its letters at N, in order (parent)
chain: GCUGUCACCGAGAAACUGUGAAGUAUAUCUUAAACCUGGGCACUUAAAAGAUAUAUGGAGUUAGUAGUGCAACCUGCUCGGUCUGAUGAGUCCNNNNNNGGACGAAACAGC

- Variants of: B1
- TEST_DESCRIPTION: FACS-Seq fitted mean relative fluorescence mCherry/BFP with ligand (log10 relative fluorescence); HEK293T; ligand: cyclic di-GMP (c-di-GMP-II aptamer); ligand concentration (+) FACS-Seq: 1 mM; higher = higher reporter protein expression
- CONDITION_INFO: ligand present: yes
Entries and their FACS-Seq fitted mean (log10)

{"SEQUENCE_CODE": "GCUGUCACCGAGAAACUGUGAAGUAUAUCUUAAACCUGGGCACUUAAAAGAUAUAUGGAGUUAGUAGUGCAACCUGCUCGGUCUGAUGAGUCCCACUGUGGACGAAACAGC [CACUGU]", "FACS-Seq fitted mean (log10)": 0.0975}
{"SEQUENCE_CODE": "GCUGUCACCGAGAAACUGUGAAGUAUAUCUUAAACCUGGGCACUUAAAAGAUAUAUGGAGUUAGUAGUGCAACCUGCUCGGUCUGAUGAGUCCGAUUGAGGACGAAACAGC [GAUUGA]", "FACS-Seq fitted mean (log10)": 0.252}
{"SEQUENCE_CODE": "GCUGUCACCGAGAAACUGUGAAGUAUAUCUUAAACCUGGGCACUUAAAAGAUAUAUGGAGUUAGUAGUGCAACCUGCUCGGUCUGAUGAGUCCUAACGGGGACGAAACAGC [UAACGG]", "FACS-Seq fitted mean (log10)": 0.21}
{"SEQUENCE_CODE": "GCUGUCACCGAGAAACUGUGAAGUAUAUCUUAAACCUGGGCACUUAAAAGAUAUAUGGAGUUAGUAGUGCAACCUGCUCGGUCUGAUGAGUCCCACACAGGACGAAACAGC [CACACA]", "FACS-Seq fitted mean (log10)": -0.354}
